Tested on: UO-31
assay summary: NCI tumour cell line growth inhibition, 48 h
The source made the active and inactive calls. Cut-off read from the data, not from the text of the source: active = GI50 up to about 1.1 µM and inactive = higher.
measure: GI50

1) O=C1NCN(c2ccccc2)C12CCN(CCCSc1ccc(F)cc1)CC2 | 48.5 µM (inactive)
2) NNC(=O)c1nnn(CCc2ccccc2)c1C(=O)NN | > 100 µM (inactive)
3) Cc1cc(NS(=O)(=O)c2ccc(NC(=O)c3ccc(Cl)c4c(Nc5ccc(S(N)(=O)=O)cc5)c5ccccc5nc34)cc2)no1 | 23.2 µM (inactive)
4) CCOC(=O)/C(=C\c1ccc(C#N)cc1)C(C)=O | 13.8 µM (inactive)
5) COc1ccc(C(=O)Cc2ccc(Cl)cc2)cc1OC | > 100 µM (inactive)
6) COC(=O)c1ccccc1CC(Cc1ccc2c(c1)CCC2)C(=O)OC (stereo not given) | > 100 µM (inactive)
7) O=C1c2cccc3cccc(c23)C(=O)N1CCCNCCCCNCCCNCCCN1C(=O)c2cccc3cccc(c23)C1=O | 6.5 µM (inactive)
8) Cc1ccc(C(=O)/C=C(O)/C(O)=C/C(=O)c2ccc(C)cc2C)c(C)c1 | 1.36 µM (inactive)
9) CSc1nncc2[nH]cnc12 | > 100 µM (inactive)
10) Cc1cc(Cl)ccc1NC1=NC(=O)C(CC(=O)Nc2cccc(Cl)c2)S1 (stereo not given) | 29.7 µM (inactive)

###

Listed below: GI50 values for each entry.
Tested on: UO-31
assay summary: NCI tumour cell line growth inhibition, 48 h
Activity calls are given as the source filed them. No stated cut-off is given here; in the data, active = GI50 up to about 1.1 µM and inactive = higher.
measure: GI50

1. Nc1ncc(CN2CCCC2)c(-c2ccccc2O)n1 | > 750 µM (inactive)
2. Clc1ccc(Cl)c(/N=N\c2cc3c4c(c2)CCN4CCC3)c1 | > 10 µM (inactive)
3. CC(C)C(NCc1c(O)ccc2c(-c3ccccc3)cc(=O)oc12)C(=O)O (stereo unspecified) | > 100 µM (inactive)
4. CC1=Cc2cccc(C)c2C(=O)C1=O | 13.9 µM (inactive)
5. O=C(Cc1ccc(Cl)c(Cl)c1)N(CCc1ccc(Cl)c(Cl)c1)CCN1CCCC1 | 1.85 µM (inactive)
6. COc1cc(C2(c3ncc[nH]3)SSSCC2O)ccc1O (stereo unspecified) | 65.9 µM (inactive)

###

Tested on: Malme-3M
assay summary: NCI tumour cell line growth inhibition, 48 h
Activity calls are given as the source filed them. No stated cut-off is given here; in the data, active = GI50 up to about 1.1 µM and inactive = higher.
Listed below: GI50 values for each entry.
measure: GI50

1) CC[C@@H]1CSC(/C=C/C2OC3OC(C)(C)OC3C3OC(C)(C)OC23)=N1 (stereo partly specified) | 10.9 µM (inactive)
2) CCc1ccc2oc(=O)ccc2c1 | > 100 µM (inactive)
3) COC(=O)Nc1nc2cc(Br)ccc2[nH]1 | 37.1 µM (inactive)
4) O=C(COc1ccc(OCC(=O)N/N=C/c2ccc(-c3ccc(Cl)cc3Cl)o2)c(Cl)c1)N/N=C/c1ccc(-c2ccc(Cl)cc2Cl)o1 | 82.8 µM (inactive)
5) O=C1C(Cl)=C(c2ccc([N+](=O)[O-])cc2)C(=O)c2c(O)cccc21 | 2.09 µM (inactive)
6) O=c1ccn2n1CCCCC2 | > 100 µM (inactive)
7) O=S1(=O)OCCOS(=O)(=O)C1Cc1nc2ccccc2[nH]1 | > 100 µM (inactive)
8) CSc1ncnc2c1ncn2CCC(=O)O | > 100 µM (inactive)
9) O=S(=O)(c1ccccc1)n1c(C(O)c2ccccc2)cc2ccccc21 (stereo unspecified) | 18.3 µM (inactive)
10) O=c1[nH]c2ccc(Cl)cc2c2oc(-c3ccccc3)nc12 | 29.3 µM (inactive)
11) COC(=O)[C@H](CC(C)C)NC(=O)[C@H](Cc1ccccc1)N1CC2C=CC1C2 (stereo partly specified) | > 100 µM (inactive)
12) C/C(=N\NC(=O)C[n+]1ccccc1)c1sc(-c2nc(C)c(/C(C)=N/NC(=O)C[n+]3ccccc3)s2)nc1C | > 100 µM (inactive)
13) COc1ccc(C=O)c([N+](=O)[O-])c1 | 21.5 µM (inactive)
14) CC(=N/N=C/c1ccccn1)/C(C)=N/N=C(C)/C(C)=N/N=C(C)/C(C)=N/N=C(C)/C(C)=N\N=C\c1ccccn1 | > 100 µM (inactive)
15) Cc1ccc([N+](=O)[O-])cc1NC(=O)/C(=N/NC(=S)NN)C1SC(=S)NC1=O (stereo unspecified) | > 100 µM (inactive)
16) CC(C(=O)c1ccccc1)C1(O)C(=O)Nc2ccccc21 (stereo unspecified) | > 100 µM (inactive)
17) C=C1CC2(CC(c3ccccc3OC)OC(c3ccccc3OC)C2)OC1=O (stereo unspecified) | 1.72 µM (inactive)
18) O=C1c2cccc3cccc(c23)C(=O)N1CCCNCCCCNCCCNCCCN1C(=O)c2cccc3cccc(c23)C1=O | 0.513 µM (active)
19) Cc1cccc2c1C(=O)OC2(C)c1cccc2ccccc12 (stereo unspecified) | 25.5 µM (inactive)
20) O=c1[nH]cc(OCC(F)(F)F)c(=O)[nH]1 | > 100 µM (inactive)
21) CCOC(=O)CCC(NC(=O)C(CCC(=O)OCC)NC(=O)C(Cc1ccc([N+](=O)[O-])cc1)NC(C)=O)C(=O)NNC(=O)OC(C)(C)C (stereo unspecified) | > 100 µM (inactive)
